experiment: Microsomal stability assay, human liver microsomes; conditions: human liver microsomal data;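 also: pooled human liver microsomes at 0.25 mg/mL with 1 µM compound and NADPH at 37 °C, pH 7.4, for 30 min, unchanged parent quantified by LC-MS/MS against the 0 min sample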
measure: HLM

Exam item: // lookup HLM for C#Cc1cnc2c(c1)[C@@H](NC[C@@H](O)[C@H](Cc1cc(F)cc(-c3nccs3)c1)NC(=O)[C@@H](C)OC)CC1(CCC1)O2
Marked response: 51 µL/min/mg

Exam item: What do you get for COCC(=O)N[C@@H](Cc1ccc(F)cc1)[C@H](O)CN[C@H]1CC2(CCC2)Oc2c(-c3ccncc3)cc(CC(C)(C)C)cc21 ?
Marked response: 24 µL/min/mg

Exam item: What do you get for CC(C)(C)Cc1cnc2c(c1)[C@@H](NC[C@@H](O)[C@H](Cc1ccc(F)cc1)NC(=O)[C@@H]1CN(Cc3cncs3)CCO1)CC1(CCC1)O2 ?
Marked response: 267 µL/min/mg

Exam item: What do you get for CO[C@H](C)C(=O)N[C@@H](Cc1ccc2c(c1)OCO2)[C@H](O)CN[C@H]1CC2(CCC2)Cc2sc(CC(C)(C)C)cc21 ?
Marked response: 211 µL/min/mg

Exam item: What do you get for CC(=O)N[C@@H](Cc1ccc2c(c1)OCO2)[C@H](O)CN[C@H]1CC2(CCC2)Oc2ncc(C(F)(F)C(C)(C)C)cc21 ?
Marked response: 46 µL/min/mg

Exam item: What do you get for CO[C@H](C)C(=O)N[C@@H](Cc1cc(F)cc(-c2nccs2)c1)[C@H](O)CN[C@H]1CC2(CCC2)Oc2ncc(C#CC3CC3)cc21 ?
Marked response: 71 µL/min/mg

Exam item: What do you get for COCC(=O)N[C@@H](Cc1cccc(F)c1)[C@H](O)CN[C@H]1CC2(CCC2)Oc2ccc(C[C@H](C)F)cc21 ?
Marked response: 614 µL/min/mg

Exam item: What do you get for COC(OC)C(=O)N[C@@H](Cc1ccc2c(c1)OCO2)[C@H](O)CN[C@H]1CC2(CCC2)Oc2ncc(CC(C)(C)C)cc21 ?
Marked response: 37 µL/min/mg

Exam item: What do you get for COCC(=O)N[C@@H](Cc1cccc(-c2nccs2)c1)[C@H](O)CN[C@H]1CC2(CCC2)Oc2ncc(C3CCCC3)cc21 ?
Marked response: 55 µL/min/mg

Exam item: What do you get for CC1(C)C[C@H]1c1cnc2c(c1)[C@@H](NC[C@@H](O)[C@H](Cc1cccc(-c3nccs3)c1)NC(=O)[C@H]1CCCO1)CC1(CCC1)O2 ?
Marked response: 94 µL/min/mg

Exam item: What do you get for COCC(=O)N[C@@H](Cc1cc(F)cc(F)c1)[C@H](O)CN[C@H]1CC2(CCC2)Oc2c1cc(CC(C)(C)C)nc2-c1cnc[nH]1 ?
Marked response: 17 µL/min/mg

Exam item: What do you get for CC(=O)N[C@@H](Cc1cccc(F)c1)[C@H](O)CN[C@H]1CC2(CCC2)Oc2c1cc(CC(C)(C)C)nc2-n1ccnc1 ?
Marked response: 14 µL/min/mg

Exam item: What do you get for CO[C@H](C)C(=O)N[C@@H](Cc1ccc(F)cc1)[C@H](O)CN[C@H]1CC2(CCC2)Oc2c1cc(CC(C)(C)C)nc2-c1ccncc1 ?
Marked response: 33 µL/min/mg

Exam item: What do you get for CC(C)(C)Cc1cnc2c(c1)[C@@H](NC[C@@H](O)[C@H](Cc1ccc(F)cc1)NC(=O)[C@H]1CCO1)CC1(CCC1)O2 ?
Marked response: 209 µL/min/mg

Exam item: What do you get for CC(C)(C)Cc1cnc2c(c1)[C@@H](NC[C@@H](O)[C@H](Cc1ccc(F)cc1)NC=O)CC1(CCC1)O2 ?
Marked response: 264 µL/min/mg

Exam item: What do you get for COCC(=O)N[C@@H](Cc1cc(F)cc(F)c1)[C@H](O)CN[C@H]1CC2(CCC2)Oc2c1cc(CC(C)(C)C)nc2-c1ccncc1 ?
Marked response: 19 µL/min/mg

Exam item: What do you get for COCC(=O)N[C@@H](Cc1cc(F)cc(-c2nccs2)c1)[C@H](O)CN[C@H]1CC2(CCC2)Oc2cnc(CC(C)(C)C)cc21 ?
Marked response: 94 µL/min/mg

Exam item: What do you get for CO[C@H](C)C(=O)N[C@@H](Cc1ccc(F)c(-c2nccs2)c1)[C@H](O)CN[C@H]1CC2(CCC2)Oc2ncc(CC(C)C)cc21 ?
Marked response: 39 µL/min/mg

Exam item: What do you get for COCC(=O)N[C@@H](Cc1cc(F)cc(F)c1)[C@H](O)CN[C@H]1CC2(CCC2)Oc2c(-c3cncs3)cc(CC(C)(C)C)cc21 ?
Marked response: 408 µL/min/mg

Exam item: What do you get for C#Cc1cc(C#C)cc(C[C@H](NC(=O)COC)[C@H](O)CN[C@H]2CC3(CCC3)Oc3ncc(CC(C)(C)C)cc32)c1 ?
Marked response: 90 µL/min/mg

Exam item: What do you get for COCC(=O)N[C@@H](Cc1ccc(F)cc1)[C@H](O)CN[C@H]1CC2(CCC2)Oc2ncc(CC(C)(C)C#N)cc21 ?
Marked response: 89 µL/min/mg

Exam item: What do you get for C#Cc1cccc(C[C@H](NC(=O)[C@@H]2CCCO2)[C@H](O)CN[C@H]2CC3(CCC3)Oc3ncc(CC(C)(C)C)cc32)c1F ?
Marked response: 41 µL/min/mg

Exam item: What do you get for CO[C@H](C)C(=O)N[C@@H](Cc1cncs1)[C@H](O)CN[C@H]1CC2(CCC2)Oc2ncc([C@@H]3CC3(C)C)cc21 ?
Marked response: 205 µL/min/mg

Exam item: What do you get for COCC(=O)N[C@@H](Cc1cc(F)cc(F)c1)[C@H](O)CN[C@H]1CC2(CCC2)Oc2c1cc(CC(C)(C)C)nc2-n1ccnc1 ?
Marked response: 30 µL/min/mg

---

target: CYP3A4 (CYP3A) (Homo sapiens); assay: in vitro; conditions: microsomes, pH 7.4;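 also: inhibition of CYP3A-mediated 1-hydroxymidazolam formation after 10 min incubation with NADPH, quantified by HPLC MS relative to metabolite produced without test compound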
Sequence (P08684 2-503): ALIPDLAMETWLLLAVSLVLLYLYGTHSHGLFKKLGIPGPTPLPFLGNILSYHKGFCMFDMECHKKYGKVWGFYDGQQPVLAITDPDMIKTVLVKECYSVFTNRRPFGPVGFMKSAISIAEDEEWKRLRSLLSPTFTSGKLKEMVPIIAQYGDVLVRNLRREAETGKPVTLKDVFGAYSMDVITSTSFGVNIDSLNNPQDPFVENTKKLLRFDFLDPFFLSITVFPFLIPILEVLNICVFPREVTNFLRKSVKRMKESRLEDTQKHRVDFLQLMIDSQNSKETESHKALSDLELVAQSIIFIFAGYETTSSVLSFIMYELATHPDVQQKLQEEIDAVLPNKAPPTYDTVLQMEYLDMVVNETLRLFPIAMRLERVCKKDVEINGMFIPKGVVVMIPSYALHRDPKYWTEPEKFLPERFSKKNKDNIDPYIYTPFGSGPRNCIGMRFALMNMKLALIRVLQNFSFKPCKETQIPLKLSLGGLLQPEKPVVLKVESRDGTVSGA
measure: IC50 (nM)
The reply should contain only the number, in nM.

Exam item: // lookup IC50 for COCC(=O)N[C@@H](Cc1cc(F)cc(F)c1)[C@H](O)CN[C@H]1CC2(CCC2)Oc2c(-c3ccncc3)cc(CC(C)(C)C)cc21 [Example 488]
Marked response: 100

Exam item: What do you get for CO[C@H](C)C(=O)N[C@@H](Cc1ccc2c(c1)OCO2)[C@H](O)CN[C@@H]1c2cc(CC(C)(C)C)cnc2OC2(CCC2)[C@@H]1F [compound 554] ?
Marked response: 200

Exam item: What do you get for COCC(=O)N[C@@H](Cc1cc(F)cc(F)c1)[C@H](O)CN[C@H]1CC2(CCC2)Oc2c1cc(CC(C)(C)C)nc2Nc1cccnc1 [compound 568] ?
Marked response: 200

Exam item: What do you get for CN1CCO[C@@H](C(=O)N[C@@H](Cc2ccc(F)cc2)[C@H](O)CN[C@H]2CC3(CCC3)Oc3ncc(CC(C)(C)C)cc32)C1 [compound 739] ?
Marked response: 800

Exam item: What do you get for CC(=O)N[C@@H](Cc1cc(F)cc(-c2ccncc2)c1)[C@H](O)CN[C@H]1CC2(CCC2)Oc2ncc(CC(C)(C)C)cc21 [compound 614] ?
Marked response: 160

Exam item: What do you get for Cc1ccccc1CN1CCO[C@H](C(=O)N[C@@H](Cc2ccc(F)cc2)[C@H](O)CN[C@H]2CC3(CCC3)Oc3ncc(CC(C)(C)C)cc32)C1 [compound 697] ?
Marked response: 200

---

I'd appreciate it if you could supply IC50 values for the items below.
tested on: Aβ40 in conditioned medium of cells stably expressing Amyloid Precursor Protein (APP); test: In vitro BACE cell-based assay (Aβ40 in conditioned medium, sandwich ELISA); conditions: Homo sapiens, HEK293, HEK cell-based assay IC50; read-out: HEK cell assay;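 also: compounds added as a dilution series, secreted peptide quantified by europium time-resolved fluorescence readout, potency fitted from percent of control versus compound concentration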
The reply should contain only the number, in µM.

Exam item: // lookup IC50 for Cc1ccc(CN2CCO[C@@H](C(=O)N[C@@H](Cc3ccc(F)cc3)[C@H](O)CN[C@H]3CC4(CCC4)Oc4ncc(CC(C)(C)C)cc43)C2)cc1
Marked response: 0.038

Exam item: What do you get for CC(=O)N[C@@H](Cc1cc(F)cc(-c2cncs2)c1)[C@H](O)CN[C@H]1CC2(CCC2)Oc2ncc(CC(C)(C)C)cc21 ?
Marked response: 0.012

Exam item: What do you get for COCC(=O)N[C@@H](Cc1cc(F)cc(-c2nccs2)c1)[C@H](O)CN[C@H]1CC2(CCC2)Oc2ncc(CC(C)C)cc21 ?
Marked response: 0.011

---

experiment: Microsomal stability assay, rat liver microsomes; details: rat liver microsomes;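 also: rat liver microsomes (0.25 mg/mL) with about 1 µM compound plus 1 mM NADPH, pH 7.4, 37 °C for 30 min, parent left measured by LC-MS/MS against 0 min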
measure: RLM (µL/min/mg)
The reply should contain only the number, in µL/min/mg.

Exam item: // lookup RLM for CO[C@H](C)C(=O)N[C@@H](Cc1cc(F)cc(F)c1)[C@H](O)CN[C@H]1CC2(CCC2)Oc2c(-c3ccncc3)cc(CC(C)C)cc21 [compound 587]
Marked response: 73

Exam item: What do you get for CC(=O)N[C@@H](Cc1ccc(F)c(-c2ccco2)c1)[C@H](O)CN[C@H]1CC2(CCC2)Oc2ccc(CC(C)(C)C)cc21 [Example 432] ?
Marked response: 323

Exam item: What do you get for CNc1nc(CC(C)C)cc2c1OC1(CCC1)C[C@@H]2NC[C@@H](O)[C@H](Cc1ccc2c(c1)OCO2)NC(=O)COC [compound 681] ?
Marked response: 392

Exam item: What do you get for COCC(=O)N[C@@H](Cc1cc(F)cc(F)c1)[C@H](O)CN[C@H]1CC2(CCC2)Oc2c1cc(CC(C)C)nc2-c1ccncc1 [compound 682] ?
Marked response: 113

Exam item: What do you get for CO[C@H](C)C(=O)N[C@@H](Cc1ccc(F)c(F)c1)[C@H](O)CN[C@H]1CC(C)(C)Oc2ncc(CC(C)(C)C)cc21 [compound 675] ?
Marked response: 411

Exam item: What do you get for CO[C@H](C)C(=O)N[C@@H](Cc1cncs1)[C@H](O)CN[C@H]1CC2(CCC2)Oc2c(-c3ccncc3)cc(CC(C)(C)C)cc21 [compound 632] ?
Marked response: 166

Exam item: What do you get for CC(=O)N[C@@H](Cc1ccc(F)cc1)[C@H](O)CN[C@H]1CC2(CCNC2)Oc2cnc(CC(C)(C)C)cc21 (stereo partly shown) [compound 702] ?
Marked response: 26

Exam item: What do you get for CC(=O)N[C@@H](Cc1cccc(-c2ccncc2)c1)[C@H](O)CN[C@H]1CC2(CCC2)Oc2ncc(CC(C)(C)C)cc21 [compound 616] ?
Marked response: 96

Exam item: What do you get for Cc1ccc(CN2CCO[C@H](C(=O)N[C@@H](Cc3ccc(F)cc3)[C@H](O)CN[C@H]3CC4(CCC4)Oc4ncc(CC(C)(C)C)cc43)C2)cc1 [compound 708] ?
Marked response: 278

Exam item: What do you get for CC(=O)N[C@@H](Cc1ccc(-c2cncs2)cc1)[C@H](O)CN[C@H]1CC2(CCC2)Oc2ncc(CC(C)(C)C)cc21 [compound 694] ?
Marked response: 66

Exam item: What do you get for CC(=O)N[C@@H](Cc1ccc(F)c(-c2nccs2)c1)[C@H](O)CN[C@H]1CC2(CCC2)Oc2ncc(CC(C)(C)C)cc21 [compound 621] ?
Marked response: 64

Exam item: What do you get for CCOCC(=O)N[C@@H](Cc1cccc(F)c1)[C@H](O)CN[C@H]1CC2(CCC2)Oc2ncc(CC(C)(C)C)cc21 [compound 660] ?
Marked response: 775

Exam item: What do you get for CC(=O)N[C@@H](Cc1cccc(F)c1)[C@H](O)CN[C@H]1CC2(CCC2)Oc2c(-c3ccncc3)cc(Cl)cc21 [compound 595] ?
Marked response: 736
